Molecular target: ETS1 (UniProt P14921)
Sequence: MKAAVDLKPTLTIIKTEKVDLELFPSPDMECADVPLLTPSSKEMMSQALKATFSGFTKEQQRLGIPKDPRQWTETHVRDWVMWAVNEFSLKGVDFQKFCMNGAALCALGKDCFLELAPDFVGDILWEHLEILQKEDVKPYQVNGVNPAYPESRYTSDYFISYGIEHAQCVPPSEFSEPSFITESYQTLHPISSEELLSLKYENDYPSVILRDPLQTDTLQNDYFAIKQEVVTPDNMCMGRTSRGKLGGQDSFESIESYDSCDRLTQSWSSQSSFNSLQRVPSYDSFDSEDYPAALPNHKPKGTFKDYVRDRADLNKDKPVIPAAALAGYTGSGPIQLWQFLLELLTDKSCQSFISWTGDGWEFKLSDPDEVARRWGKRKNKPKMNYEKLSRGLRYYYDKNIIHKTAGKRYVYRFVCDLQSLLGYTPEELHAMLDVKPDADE
Assay: ETS1 binding intensity (PBM fluorescence) in presence of RUNX1, normalised to ETS1-only experiment (arbitrary fluorescence units); higher = stronger binding
Settings: ETS1 concentration 1 nM; RUNX1 concentration 25 nM
MEASUREMENT NAME: ETS1 binding intensity
Answer field: number only, no words.

Lookup result for GTGACCCAATACTTCCTGCCACAATACTGAGAACTC ; measured ETS1 binding intensity: 702

Lookup result for GCAGGAAACGCTTTCTTAACACTATGTGGGTGAGGT ; measured ETS1 binding intensity: 691

Kindly consider the entry below.
Lookup result for CCACTAGCAGGAAAACGGGCCGAGGGACCGCAAGCA ; measured ETS1 binding intensity: 688

###

Target: RUNX1 (UniProt Q01196)
Sequence (Q01196 whole entry): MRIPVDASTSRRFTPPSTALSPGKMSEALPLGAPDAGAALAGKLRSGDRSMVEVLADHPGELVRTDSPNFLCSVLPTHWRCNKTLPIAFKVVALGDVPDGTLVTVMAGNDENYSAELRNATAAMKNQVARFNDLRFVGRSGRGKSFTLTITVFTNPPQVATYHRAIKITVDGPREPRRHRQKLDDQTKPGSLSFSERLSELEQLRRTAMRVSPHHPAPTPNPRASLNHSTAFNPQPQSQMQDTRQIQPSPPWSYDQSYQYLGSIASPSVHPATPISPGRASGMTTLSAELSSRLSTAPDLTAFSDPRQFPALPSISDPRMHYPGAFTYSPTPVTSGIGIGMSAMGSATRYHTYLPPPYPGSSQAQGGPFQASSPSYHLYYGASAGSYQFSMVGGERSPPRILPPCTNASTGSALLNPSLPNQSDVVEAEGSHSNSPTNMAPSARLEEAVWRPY
Experiment: RUNX1 binding intensity (PBM fluorescence) in presence of ETS1, normalised to RUNX1-only experiment (arbitrary fluorescence units); higher = stronger binding
Details: RUNX1 concentration 2 nM; ETS1 concentration 25 nM
MEASUREMENT NAME: RUNX1 binding intensity
Answer field: number only, no words.

Lookup result for AGCCTTAATTACCCGGAAGTGCGGTCCCAGGGACTT ; measured RUNX1 binding intensity: 1710

Lookup result for TTGACCCGGACGTGGACAAAAGACCGCAAAGGACGC ; measured RUNX1 binding intensity: 1540

Lookup result for TACAGCTGGAACGTCCTGTGGTTAACATTCTGCTCT ; measured RUNX1 binding intensity: 1970

###

Molecular target: ETS1 (UniProt P14921)
Sequence: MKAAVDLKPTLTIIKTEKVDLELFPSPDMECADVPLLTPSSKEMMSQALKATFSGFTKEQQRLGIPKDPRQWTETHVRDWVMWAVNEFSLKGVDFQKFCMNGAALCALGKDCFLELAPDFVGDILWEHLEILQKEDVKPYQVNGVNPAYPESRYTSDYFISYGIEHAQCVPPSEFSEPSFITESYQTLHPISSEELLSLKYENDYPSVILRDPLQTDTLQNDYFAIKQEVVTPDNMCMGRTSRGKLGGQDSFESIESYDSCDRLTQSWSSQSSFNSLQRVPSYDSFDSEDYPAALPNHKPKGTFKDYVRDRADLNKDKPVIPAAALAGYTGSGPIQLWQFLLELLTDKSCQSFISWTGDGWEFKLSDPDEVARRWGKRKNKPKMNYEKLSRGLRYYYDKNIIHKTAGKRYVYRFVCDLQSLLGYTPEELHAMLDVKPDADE
Assay: ETS1 binding intensity (PBM fluorescence), ETS1 alone (arbitrary fluorescence units); higher = stronger binding
Details: ETS1 concentration 1 nM; RUNX1 concentration 0 nM
Binning of ETS1 binding intensity into classes: low interval = under 700, middle interval = from 700 up to 900, high interval = 900 and over

# count of solved cases: 5
Bin this entry: ACTCACTTCCGTTTAGCTTATCAACCACCAAGAGAC high interval

Bin this entry: GAGATAGTCTGGAGGGGAAGTGGTTATAAGTGATAA middle interval

Bin this entry: CGGCGCTCGCGGAAGTGCCGCGGTGCCTGCTCTGCA middle interval

Bin this entry: AGATGAGGAAGTTGGGGTTTAGAGTGGTTAAACTGT low interval

Bin this entry: GTGCTAGGACACAGGAAGCGATACCACAAAGAACAT high interval

Please turn your attention to the following entry.
Bin this entry: AGGAGTGTCACTTCCTCTTTCCTCACCACAGCCTCC high interval

###

Target: RUNX1 (UniProt Q01196)
Test: RUNX1 binding intensity (PBM fluorescence), RUNX1 alone (arbitrary fluorescence units); higher = stronger binding
Settings: RUNX1 concentration 2 nM; ETS1 concentration 0 nM
Recorded RUNX1 binding intensity by entry
Answer field: number only, no words.

Some sequences with recorded RUNX1 binding intensity:
Entry GACTTCCTGTTGAAGATTGGCCTCTGCGGTACCACG under RUNX1 (UniProt Q01196) had RUNX1 binding intensity of 2700

Entry GGAGGAAGTGACACCCACCCACTGCCCCCGCAAGGT under RUNX1 (UniProt Q01196) had RUNX1 binding intensity of 797

Entry TAGCATGTGAGCTTCCTGTGGGTTTGTGCAGCCCCA under RUNX1 (UniProt Q01196) had RUNX1 binding intensity of 708

Entry GAGGGACAGGATGCCGCCAGGAACCACAAGAGCTTC under RUNX1 (UniProt Q01196) had RUNX1 binding intensity of 844

Entry GAGACAGGAAATGTAGACTTGAGTCCTGTGGTAAAC under RUNX1 (UniProt Q01196) had RUNX1 binding intensity of 739

***
Entry TGACTTCCTCCTCTTCACTAACAGAAACCTCAATTT under RUNX1 (UniProt Q01196) had RUNX1 binding intensity of 1400

Entry AGCACAAACCCAGGATGTGGTAAATGAAATGAAAAA under RUNX1 (UniProt Q01196) had RUNX1 binding intensity of 858

Entry CCCGTTCTCCGGAAGTGCGCGGGTTGGAGCTGAAGC under RUNX1 (UniProt Q01196) had RUNX1 binding intensity of 760

Entry TGGGCAAGATATCCTGGAAGTGGTTAAAAAAAATTA under RUNX1 (UniProt Q01196) had RUNX1 binding intensity of 739

Entry ACCTCATCCTGCTGTTCTTGTGTGTGGTTGAGCAGT under RUNX1 (UniProt Q01196) had RUNX1 binding intensity of 944

Entry CACCTGCAGTGAAGAGGATGTGGGCAAAGATTATGC under RUNX1 (UniProt Q01196) had RUNX1 binding intensity of 746

Entry CCCGGAAACTCAACTGCCCACTGCTGCGGCCGCCAT under RUNX1 (UniProt Q01196) had RUNX1 binding intensity of 1070

Entry CGTCACTTCCCACGCGACTGCCTGCGGGAAACATGG under RUNX1 (UniProt Q01196) had RUNX1 binding intensity of 1150

###

Biological target: RUNX1 (UniProt Q01196)
Test: RUNX1 binding intensity (PBM fluorescence) in presence of ETS1, normalised to RUNX1-only experiment (arbitrary fluorescence units); higher = stronger binding
Details: RUNX1 concentration 2 nM; ETS1 concentration 25 nM
Recorded RUNX1 binding intensity by entry
Answer field: number only, no words.

Lookup result for AGGGAACAGGAAATGCAAAAAACCACAAGGGACAAG ; measured RUNX1 binding intensity: 15800

***
Lookup result for CCTTGCTGCAGGATGCTCTAACCACAAGCCCAGGAG ; measured RUNX1 binding intensity: 5330

Lookup result for TGGTTCCACCGACCGGAAGGGCCACAAGGATCCCCG ; measured RUNX1 binding intensity: 1250

Lookup result for CAGAAACATCCCTCCTGCCGCCGCTTTGTGGTACCA ; measured RUNX1 binding intensity: 925

Lookup result for TTTCTCTTCCTGTTTCCACCCTGACCACAGCCAGCT ; measured RUNX1 binding intensity: 5140

Lookup result for CGGCTAGGAAATAAAGAGCCTTCTCTCCGCGGTAGG ; measured RUNX1 binding intensity: 2200

###

Molecular target: RUNX1 (UniProt Q01196)
Experiment: TF binding intensity (PBM fluorescence), negative control probe (arbitrary fluorescence units); higher = stronger binding
Recorded TF binding intensity by entry
Answer field: number only, no words.

Some sequences with recorded TF binding intensity:
Lookup result for TATCACTTCTGGCGAAGGAAATGGAAGAATCTATGG (protein concentration 2 nM) ; measured TF binding intensity: 1010

Lookup result for CAGGCTCGACACGGGCGGAACAAACGGGCTCCACTA (protein concentration 2 nM) ; measured TF binding intensity: 769

Lookup result for TCCCTGCTGGTCCTGGTTCCGGCACACCAGGCCCTC (protein concentration 2 nM) ; measured TF binding intensity: 864

***
Lookup result for GCTCCATCACCTCCTCTTCCGGTCCCTCCTCTAGGG (protein concentration 2 nM) ; measured TF binding intensity: 1160

Lookup result for CCATGATGTTTGTGATTTCCGGCAGATGATGAGTAA (protein concentration 2 nM) ; measured TF binding intensity: 970
